Reported inhibition by item:
Molecular target: Beta-1,3-galactosyltransferase 5 (Homo sapiens) (UniProt Q9Y2C3)
Sequence (whole entry): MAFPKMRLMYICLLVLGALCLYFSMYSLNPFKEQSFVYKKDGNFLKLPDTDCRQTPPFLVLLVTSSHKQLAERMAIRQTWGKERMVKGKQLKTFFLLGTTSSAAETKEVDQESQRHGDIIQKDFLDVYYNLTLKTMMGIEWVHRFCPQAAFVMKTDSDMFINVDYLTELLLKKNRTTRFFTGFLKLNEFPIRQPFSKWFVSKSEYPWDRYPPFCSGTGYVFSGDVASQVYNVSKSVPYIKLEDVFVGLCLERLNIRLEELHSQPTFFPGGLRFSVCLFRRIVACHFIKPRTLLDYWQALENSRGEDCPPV
Assay: Inhibition of human recombinant soluble His-tagged beta3-GalT5 expressed in insect cells using GlcNAcbeta-Bn as substrate at 0.5 mM after 1 hr relative to control
property.label: inhibition

smiles_text=c1cn(CCCCCCCCCCCCCn2ccnc2)cn1 property_label=inhibition measured="< 1%"
smiles_text=c1cn(CCCCCCCCCCCCCCCCCCn2ccnc2)cn1 property_label=inhibition measured="< 1%"
smiles_text=C[n+]1ccn(CCCCCCCCn2cc[n+](C)c2)c1 property_label=inhibition measured="< 1%"
smiles_text=c1cn(CCCCCCCCCCCCCCCn2ccnc2)cn1 property_label=inhibition measured="< 1%"
smiles_text=C[n+]1ccn(CCCCCCn2cc[n+](C)c2)c1 property_label=inhibition measured="< 1%"
smiles_text=C[n+]1ccn(CCCCCCCCCCCCCCCCCCn2cc[n+](C)c2)c1 property_label=inhibition measured="< 5%"

---

Target: Beta-1,4-galactosyltransferase 1 (Homo sapiens)
Sequence (P15291 whole entry): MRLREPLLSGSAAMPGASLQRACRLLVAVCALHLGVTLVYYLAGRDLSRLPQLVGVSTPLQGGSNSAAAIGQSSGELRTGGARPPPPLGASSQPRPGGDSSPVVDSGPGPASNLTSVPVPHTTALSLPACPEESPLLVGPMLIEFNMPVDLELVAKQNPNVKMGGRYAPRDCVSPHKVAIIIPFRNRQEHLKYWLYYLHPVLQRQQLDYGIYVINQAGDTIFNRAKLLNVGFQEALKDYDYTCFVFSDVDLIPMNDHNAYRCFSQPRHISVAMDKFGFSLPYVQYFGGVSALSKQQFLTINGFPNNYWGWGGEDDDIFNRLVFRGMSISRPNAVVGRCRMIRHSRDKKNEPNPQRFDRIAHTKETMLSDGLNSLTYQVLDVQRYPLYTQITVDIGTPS
Assay: Inhibition of human recombinant soluble His-tagged beta4-GalT1 expressed in Escherichia coli BL21 using GlcNAcbeta-Bn as substrate after 1 hr relative to control
property.label: IC50 (mM)

smiles_text=C[n+]1ccn(CCCCCCCCCCCCCCCCCCCCn2cc[n+](C)c2)c1 property_label=IC50 measured=1.96

---

Biological target: Beta-1,3-galactosyltransferase 5 (Homo sapiens) (UniProt Q9Y2C3)
Test: Inhibition of human recombinant soluble His-tagged beta3-GalT5 expressed in insect cells using GlcNAcbeta-Bn as substrate at 0.5 mM after 1 hr relative to control
property.label: inhibition

smiles_text=C[n+]1ccn(CCCCCCCCCCCCCCn2cc[n+](C)c2)c1 property_label=inhibition measured="< 1%"
smiles_text=C[n+]1ccn(CCCCCCCCCCn2cc[n+](C)c2)c1 property_label=inhibition measured="< 1%"
smiles_text=C[n+]1ccn(CCCCCCCCCCCCCn2cc[n+](C)c2)c1 property_label=inhibition measured="< 1%"
smiles_text=c1cn(CCCCCCCCCCCCCCn2ccnc2)cn1 property_label=inhibition measured="< 1%"
smiles_text=C[n+]1ccn(CCCCn2cc[n+](C)c2)c1 property_label=inhibition measured="< 1%"
